Where do these numbers come from? They come from paper PMC10786891.

system.name: T1, EsCas13d, nuclease-dead (Eubacterium siraeum, UniProt B0MS50, R295A;H300A;R849A;H854A)
T1 sequence: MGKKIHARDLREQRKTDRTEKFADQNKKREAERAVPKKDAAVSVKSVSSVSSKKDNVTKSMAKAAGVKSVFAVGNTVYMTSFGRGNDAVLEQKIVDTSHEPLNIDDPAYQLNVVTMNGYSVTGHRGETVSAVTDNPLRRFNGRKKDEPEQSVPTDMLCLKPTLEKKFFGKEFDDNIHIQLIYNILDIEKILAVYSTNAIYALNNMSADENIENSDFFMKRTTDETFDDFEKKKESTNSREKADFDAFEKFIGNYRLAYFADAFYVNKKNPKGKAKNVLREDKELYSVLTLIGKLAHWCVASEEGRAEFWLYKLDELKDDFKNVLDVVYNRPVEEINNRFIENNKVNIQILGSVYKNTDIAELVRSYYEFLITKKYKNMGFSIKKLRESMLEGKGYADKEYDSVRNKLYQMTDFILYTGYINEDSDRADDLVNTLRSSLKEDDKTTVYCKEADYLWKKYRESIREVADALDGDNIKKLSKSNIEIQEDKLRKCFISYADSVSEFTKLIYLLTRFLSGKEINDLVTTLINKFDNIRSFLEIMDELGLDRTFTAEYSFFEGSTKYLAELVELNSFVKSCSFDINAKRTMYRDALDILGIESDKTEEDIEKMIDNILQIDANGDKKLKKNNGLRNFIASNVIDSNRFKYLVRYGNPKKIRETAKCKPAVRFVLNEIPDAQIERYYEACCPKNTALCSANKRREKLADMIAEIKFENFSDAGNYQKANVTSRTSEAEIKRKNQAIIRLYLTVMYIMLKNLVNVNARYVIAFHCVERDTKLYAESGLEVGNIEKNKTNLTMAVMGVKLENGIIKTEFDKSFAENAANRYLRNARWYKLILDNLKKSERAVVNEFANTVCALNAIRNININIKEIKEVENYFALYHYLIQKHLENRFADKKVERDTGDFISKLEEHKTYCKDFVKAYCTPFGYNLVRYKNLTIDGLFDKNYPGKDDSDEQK
procedure.text: crRNA (strand 1, pre-loaded); Mg2+; 40 mM Tris-HCl pH 7.5, 150 mM NaCl, 6 mM MgCl2, 1 mM DTT, 0.1% Tween-20, 0.2 mg/ml BSA; 25 C; 10 min per concentration, then washed
measurement.context: tags: His6-TwinStrep-SUMO cleaved; N-terminal SNAP kept (SNAP-Surface 488); label: 3' end held by stalled T7 RNA polymerase
Recorded Kd for the following binders
Form entry: value (nM) — number only.

Example results:
- target 1 insU 3' of 9,insG 3' of 1 (mixed) RNA 1: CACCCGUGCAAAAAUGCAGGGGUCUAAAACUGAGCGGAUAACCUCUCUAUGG RNA 2: GGGAAUGGAUCCACAUCUACGAAUUCGUACCAUAGAGAGGUUAUUCCGCUCAGCCGAGAUCGGAAGAGCACACGU: 18.9
- target 1 insC 3' of 20,insU 3' of 12 (mixed) RNA 1: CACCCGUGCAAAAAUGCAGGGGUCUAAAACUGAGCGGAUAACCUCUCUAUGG RNA 2: GGGAAUGGAUCCACAUCUACGAAUUCGUACCACUAGAGAGGUUUAUCCGCUCACCGAGAUCGGAAGAGCACACGU: 6.19
- target 1 insU 3' of 18,insU 3' of 5 (mixed) RNA 1: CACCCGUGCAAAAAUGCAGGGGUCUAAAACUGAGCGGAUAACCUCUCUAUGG RNA 2: GGGAAUGGAUCCACAUCUACGAAUUCGUACCAUAUGAGAGGUUAUCCGUCUCACCGAGAUCGGAAGAGCACACGU: 48

// query Need Kd of target 1 insC 3' of 13,insG 3' of 6 (mixed) RNA 1: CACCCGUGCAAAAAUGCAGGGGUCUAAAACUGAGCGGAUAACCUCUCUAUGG RNA 2: GGGAAUGGAUCCACAUCUACGAAUUCGUACCAUAGAGAGCGUUAUCCGGCUCACCGAGAUCGGAAGAGCACACGU , thanks.
// result 14.6

// query Consider the binder target 1 insG 3' of 19,insA 3' of 10 (mixed) RNA 1: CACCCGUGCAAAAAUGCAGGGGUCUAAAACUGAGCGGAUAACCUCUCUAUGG RNA 2: GGGAAUGGAUCCACAUCUACGAAUUCGUACCAUGAGAGAGGUUAAUCCGCUCACCGAGAUCGGAAGAGCACACGU and give its measured Kd.
// result 59

// query Which Kd value belongs to target 1 C4G,G15A (mixed) RNA 1: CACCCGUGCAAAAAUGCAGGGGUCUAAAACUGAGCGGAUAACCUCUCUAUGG RNA 2: GGGAAUGGAUCCACAUCUACGAAUUCGUACCAUAGAAAGGUUAUCCGGUCACCGAGAUCGGAAGAGCACACGU ?
// result 13.2

// query Would you kindly share the measured Kd for target 1 MT 5'PFS GGA 3'PFS CUG (mixed) RNA 1: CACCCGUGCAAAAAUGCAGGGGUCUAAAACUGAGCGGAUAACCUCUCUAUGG RNA 2: GGGAAUGGAUCCACAUCUACGAAUUCGGACCAUAGAGAGGUUAUCCGCUCACUGAGAUCGGAAGAGCACACGU ?
// result 11.3
